Molecular target: T1, 4H2961-AA
T1 chain: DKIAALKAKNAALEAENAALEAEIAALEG
Test: two-hybrid library CCmax;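 further: natural log of median RNA to DNA barcode read ratio; higher means stronger binding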
Settings: mean of both orientations
Consider the following binders; for each one, report its interaction score.
One number for each entry.

Consider the following illustrative entries.
>>> recorded_measurement("DENAALEAKIAALKAEIAALKAKNAALKG [4H1360-AA]")
-1.52
>>> recorded_measurement("DENAALEAENAALKAKIAALKAEIAALEG [4H1257-AA]")
-1.08
>>> recorded_measurement("DKIAALKAKNAALEAEIAALEAENAALEG [4H2947-AA]")
-2.03

Lab note: measured interaction score of DEIAALEAENAALKAKIAALKAENAALEG [4H235-AA] was -1.27
